Molecular target: Transient receptor potential cation channel subfamily V member 2 (Rattus norvegicus)
Sequence (Q9WUD2 whole entry): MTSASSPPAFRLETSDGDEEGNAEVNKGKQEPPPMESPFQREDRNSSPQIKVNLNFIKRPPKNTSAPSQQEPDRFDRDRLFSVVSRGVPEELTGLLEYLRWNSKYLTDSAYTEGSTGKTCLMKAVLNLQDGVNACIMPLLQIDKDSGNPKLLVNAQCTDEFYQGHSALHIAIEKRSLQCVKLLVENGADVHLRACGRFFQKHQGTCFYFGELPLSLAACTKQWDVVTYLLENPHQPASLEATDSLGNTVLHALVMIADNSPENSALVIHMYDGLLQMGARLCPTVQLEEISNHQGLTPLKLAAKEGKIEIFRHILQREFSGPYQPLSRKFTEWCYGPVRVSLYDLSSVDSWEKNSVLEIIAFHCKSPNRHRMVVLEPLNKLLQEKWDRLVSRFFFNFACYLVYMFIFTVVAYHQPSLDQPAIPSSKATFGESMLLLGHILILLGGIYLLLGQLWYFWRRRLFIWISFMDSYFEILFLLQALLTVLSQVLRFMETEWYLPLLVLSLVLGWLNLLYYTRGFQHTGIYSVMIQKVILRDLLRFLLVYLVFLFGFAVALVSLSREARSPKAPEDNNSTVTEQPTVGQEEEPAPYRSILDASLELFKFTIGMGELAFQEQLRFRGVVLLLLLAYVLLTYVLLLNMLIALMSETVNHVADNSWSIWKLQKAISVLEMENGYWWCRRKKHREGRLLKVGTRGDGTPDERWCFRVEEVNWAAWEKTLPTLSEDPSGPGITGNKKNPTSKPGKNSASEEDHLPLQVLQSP
Assay: Antagonist activity at recombinant rat TRPV2 expressed in HEK293 cells assessed as inhibition of CBD-induced Ca2+ levels preincubated for 5 mins followed by agonist addition by Fuo-4-AM based spectrofluorimetry
Format: cell-based
Measured Endpoint: IC50 (µM)
Dear colleague, please return just the value in µM, with no unit written.

Briefly, IC50 measured for `CCCCC/C=C\C/C=C\CCCCCCCC(=O)NCc1ccc(O)c(OC)c1` : 2.1

Briefly, IC50 measured for `CC/C=C\C/C=C\C/C=C\C/C=C\C/C=C\CCCC(=O)NCCO` : 2.3

Briefly, IC50 measured for `CCCCCCC(=O)C/C=C/CCCCCCCC(=O)NCc1ccc(O)c(OC)c1` : 4.4
